The measurements presented in this section are drawn from the SangsterLogP compilation.

The following compounds are shown together with reported logP values.

>  <record smiles>
c1ccc2c(c1)OCCOCCOCCOCCOCCOCCO2

>  <value>
0.57

$$$$
>  <record smiles>
c1ccc2c(c1)OCCOCCOCCOCCOc1ccccc1OCCOCCOCCOCCO2

>  <value>
1.8

$$$$
>  <record smiles>
c1ccc2c(c1)OCCOCCOCCOc1ccccc1OCCOCCOCCO2

>  <value>
2.11

$$$$

I am curious: what logP value has been reported for `c1ccc2c(c1)OCCOCCOCCOCCOCCOCCOc1ccccc1OCCO2` ?
1.63

I am curious: what logP value has been reported for `c1ccc2c(c1)OCCOCCOCCOCCOCCOCCOCCO2` ?
0.45

I am curious: what logP value has been reported for `c1ccc2c(c1)OCCOCCOCCOCCOCCOCCOCCOCCOCCO2` ?
0.03
